target: full-length LRRK2 wild type (Homo sapiens)
Sequence (Q5S007 whole entry): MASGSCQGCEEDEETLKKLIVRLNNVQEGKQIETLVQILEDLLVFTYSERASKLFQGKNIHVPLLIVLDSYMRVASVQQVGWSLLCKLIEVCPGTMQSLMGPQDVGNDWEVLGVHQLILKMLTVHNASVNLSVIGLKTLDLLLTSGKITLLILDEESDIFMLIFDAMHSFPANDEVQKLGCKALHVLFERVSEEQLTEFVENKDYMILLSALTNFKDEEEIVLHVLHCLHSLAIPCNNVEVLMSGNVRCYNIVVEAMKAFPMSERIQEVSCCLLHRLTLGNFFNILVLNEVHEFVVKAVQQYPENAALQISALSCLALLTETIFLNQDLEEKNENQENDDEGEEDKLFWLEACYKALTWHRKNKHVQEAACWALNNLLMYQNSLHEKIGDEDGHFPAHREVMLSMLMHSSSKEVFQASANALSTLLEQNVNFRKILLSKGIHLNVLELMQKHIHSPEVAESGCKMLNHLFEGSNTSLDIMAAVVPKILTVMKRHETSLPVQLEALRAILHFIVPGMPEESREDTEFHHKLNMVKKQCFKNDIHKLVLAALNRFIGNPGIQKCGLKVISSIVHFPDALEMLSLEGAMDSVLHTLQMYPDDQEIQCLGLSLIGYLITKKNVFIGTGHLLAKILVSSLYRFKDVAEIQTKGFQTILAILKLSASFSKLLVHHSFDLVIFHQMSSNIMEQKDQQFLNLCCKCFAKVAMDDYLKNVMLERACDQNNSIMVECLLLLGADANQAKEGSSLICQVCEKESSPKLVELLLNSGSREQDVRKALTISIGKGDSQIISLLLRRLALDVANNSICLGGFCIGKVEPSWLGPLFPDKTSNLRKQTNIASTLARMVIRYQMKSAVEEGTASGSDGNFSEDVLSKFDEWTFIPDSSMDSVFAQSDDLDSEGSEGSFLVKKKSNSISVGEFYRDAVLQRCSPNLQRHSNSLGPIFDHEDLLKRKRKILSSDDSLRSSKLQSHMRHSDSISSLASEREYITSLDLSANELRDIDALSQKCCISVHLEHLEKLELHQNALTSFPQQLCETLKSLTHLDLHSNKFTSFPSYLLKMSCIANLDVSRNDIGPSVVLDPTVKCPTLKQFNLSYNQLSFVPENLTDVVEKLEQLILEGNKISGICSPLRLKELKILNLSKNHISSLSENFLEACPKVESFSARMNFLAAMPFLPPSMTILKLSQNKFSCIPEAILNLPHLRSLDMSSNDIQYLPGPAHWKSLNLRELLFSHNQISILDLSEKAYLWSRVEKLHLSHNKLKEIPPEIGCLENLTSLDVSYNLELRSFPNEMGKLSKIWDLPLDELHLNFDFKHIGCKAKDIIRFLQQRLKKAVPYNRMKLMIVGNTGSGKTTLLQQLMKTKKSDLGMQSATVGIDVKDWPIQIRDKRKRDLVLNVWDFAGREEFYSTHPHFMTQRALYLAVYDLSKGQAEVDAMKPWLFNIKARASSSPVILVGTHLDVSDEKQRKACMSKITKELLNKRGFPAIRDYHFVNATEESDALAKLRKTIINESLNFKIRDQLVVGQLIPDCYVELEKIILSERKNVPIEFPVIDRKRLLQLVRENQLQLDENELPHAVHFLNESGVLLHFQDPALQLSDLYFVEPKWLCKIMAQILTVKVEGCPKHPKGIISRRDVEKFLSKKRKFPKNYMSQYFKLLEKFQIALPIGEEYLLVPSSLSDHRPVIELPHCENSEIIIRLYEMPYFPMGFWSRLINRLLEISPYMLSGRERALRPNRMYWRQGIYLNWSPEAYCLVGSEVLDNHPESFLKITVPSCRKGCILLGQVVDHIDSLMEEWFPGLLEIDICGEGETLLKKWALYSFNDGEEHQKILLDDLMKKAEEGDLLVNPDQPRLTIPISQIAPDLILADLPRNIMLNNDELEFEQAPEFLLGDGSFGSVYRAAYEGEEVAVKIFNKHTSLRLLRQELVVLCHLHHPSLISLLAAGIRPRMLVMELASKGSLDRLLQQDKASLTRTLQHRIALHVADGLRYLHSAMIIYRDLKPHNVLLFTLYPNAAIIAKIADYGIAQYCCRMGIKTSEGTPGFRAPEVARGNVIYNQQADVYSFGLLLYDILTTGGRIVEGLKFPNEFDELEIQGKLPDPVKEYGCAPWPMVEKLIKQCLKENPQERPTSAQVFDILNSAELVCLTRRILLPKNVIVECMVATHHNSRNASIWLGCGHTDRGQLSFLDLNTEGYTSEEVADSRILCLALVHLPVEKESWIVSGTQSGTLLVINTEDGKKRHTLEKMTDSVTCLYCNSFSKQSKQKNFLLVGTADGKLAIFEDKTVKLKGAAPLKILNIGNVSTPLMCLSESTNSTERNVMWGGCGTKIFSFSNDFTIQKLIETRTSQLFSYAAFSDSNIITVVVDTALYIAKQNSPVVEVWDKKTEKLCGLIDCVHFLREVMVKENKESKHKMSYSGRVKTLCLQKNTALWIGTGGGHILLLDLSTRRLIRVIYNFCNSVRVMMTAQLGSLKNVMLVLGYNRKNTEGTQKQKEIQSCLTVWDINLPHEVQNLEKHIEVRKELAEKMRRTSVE
pIC50: −log10 of the molar value.
Lab note: anything with pIC50 at or over 8 counts as yes; the rest go in no.

Task item: Determine whether measured pIC50 meets or exceeds 8 for CO[C@H]1COC[C@H]1n1c(C#N)cc2cnc(Nc3cn(C4COC4)nc3OC(C)C(F)(F)F)nc21 (mixture of isomers) [Example 54]
Reply: no

Task item: Please give the result for CC(C)Oc1nn(C2COC2)cc1Nc1ncc2cc(C#N)n([C@H]3COC[C@@H]3C)c2n1 [Example 31] too.
Reply: yes

Task item: Please give the result for [2H]C([2H])([2H])n1cc(Nc2ncc3cc(C#N)n([C@H]4COC[C@@H]4C)c3n2)c(OC2COC(C)(C)C2)n1 (single isomer, unassigned) [Example 109] too.
Reply: no

Task item: Please give the result for [2H]C([2H])([2H])n1cc(Nc2ncc3cc(C#N)n([C@@H](C)COC)c3n2)c(OC2COC2(C)C)n1 (single isomer, unassigned) [Example 100] too.
Reply: no

Task item: Please give the result for COCC(C)n1cc(Nc2ncc3cc(C#N)n(C4CCOCC4)c3n2)c(OC2CC2)n1 (single isomer, unassigned) [Example 126] too.
Reply: no

Task item: Please give the result for [2H]C([2H])([2H])n1cc(Nc2ncc3cc(C#N)n([C@H]4COC[C@@H]4C)c3n2)c(OC2CC2)n1 [Example 28] too.
Reply: yes

Task item: Please give the result for CC(C)Oc1nn(C)cc1Nc1ncc2cc(C#N)n([C@H]3COC[C@@H]3C)c2n1 [Example 26] too.
Reply: yes

Where do these numbers come from? They come from patent US20240383901A1.
